- test details: APR_HepG2_MitoMass_24hr: Apredica 24-hour HepG2 Assay for Mitochondrial Mass (AID 2282912)
- measurement parameters: high-content imaging, actives raise or lower the signal
Activity calls are given as the source filed them. How the source made its calls: active means hit-call score of the fitted dose curve at least 0.9, where 1 is the maximum; inactive means score below 0.9.
assay endpoint: AC50

// below: answered compounds
INSERT INTO assay_data (compound, assay_endpoint, recorded_result) VALUES
  ('Cn1sc(Cl)cc1=O', 'AC50', '117 µM (active)'),
  ('CC12CC1(C)C(=O)N(c1cc(Cl)cc(Cl)c1)C2=O (stereo unspecified)', 'AC50', 'inactive'),
  ('NC(=O)O', 'AC50', '59.3 µM (active)'),
  ('Oc1cccc2cccnc12', 'AC50', 'inactive'),
  ('Cc1ccccc1N', 'AC50', 'inactive');

Request: // AC50 lookup, key: C=CC(=O)OCCCCCC(C)C
Response: inactive

Request: Param item = CN(C)N=O ; retrieve measured AC50.
Response: inactive

Request: What does the data say about its AC50? Entry: O=C(O)C(F)(F)C(F)(F)C(F)(F)C(F)(F)C(F)(F)C(F)(F)F
Response: inactive

Request: Returns the measured AC50 for the input compound. Input: O=C1C2(Cl)C3(Cl)C4(Cl)C(Cl)(Cl)C5(Cl)C3(Cl)C1(Cl)C5(Cl)C24Cl (stereo unspecified)
Response: inactive

Request: Bench note: what AC50 did CCC(C)(C)c1ccc(O)c(C(C)(C)CC)c1 show?
Response: inactive

Request: Requested field: AC50. Item: COc1cc(-c2ccc(N)c(OC)c2)ccc1N
Response: inactive
